- Procedure Details: Quantitative highthroughput screen to assess conditional lethalithy of NOMO1 cells grown in RPMI1640 with dialyzed fetal bovine serum (RPMI+ds) (AID 1963877); further: nearly all actives have a fitted effect of over 30% in size;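 on viability: 100% = DMSO control wells and 0% = empty wells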
- Assay Context: NOMO1 in RPMI+dialyzed FBS viability, ATP luminescence, 48 h; series mostly up to 45.8 µM
Records with an inconclusive call do not appear. Calls of active or inactive are those of the source. The call rests on the fitted dose curve; in most records, active means well fitted cell-killing curve with a large enough effect; inconclusive means small, poorly fitted or top-dose-only effect; inactive means flat fitted curve, though single readings scatter.
Select the correct class. Options are 1 (active), 0 (inactive) and nothing else.

Check out these entries, answers already filled in.
INSERT INTO results (compound, group_label) VALUES
  ('Cc1ccccc1-n1c(Cn2ncc3c(N)ncnc32)nc2cccc(C)c2c1=O', 1),
  ('CNC(=O)c1ccc(N2C(=S)N(c3ccc(C#N)c(C(F)(F)F)c3)C(=O)C23CCC3)cc1F', 0),
  ('CC(C)c1cccc(C(C)C)c1O', 0),
  ('C[C@H]1CCCC=CC2C[C@H](O)C[C@@H]2[C@H](O)C=CC(=O)O1 (stereo not given in full)', 1),
  ('CC(=Cc1csc(C)n1)[C@@H]1C[C@H]2O[C@]2(C)CCC[C@H](C)[C@@H](O)[C@@H](C)C(=O)C(C)(C)[C@@H](O)CC(=O)O1', 0),
  ('CC[C@@H](C(N)=O)N1CCCC1=O', 0);

Inquiry: Identify the outcome logged in this assay for the compound shown: `O=C(O)C(=O)c1cn(Cc2ccccc2)c2ccc(-c3ccc(OC(F)(F)F)cc3)cc12`
Reply text: 0

Inquiry: And the next one, `O=C1C=CC[C@@H]2[C@H]3CCCN4CCC[C@@H](CN12)[C@@H]34` ?
Reply text: 0

Inquiry: Would you mind doing `COc1cc(OC)c(OC)cc1C=O` as well?
Reply text: 0

Inquiry: Could you do the same for `CC[C@@]1(O)C(=O)OCc2c1cc1n(c2=O)Cc2cc3ccccc3nc2-1` , please?
Reply text: 1

---

- Procedure Details: Quantitative highthroughput screen to assess conditional lethalithy of SEM cells grown in Human Plasma-Like Medium with dialyzed fetal bovine serum (HPLM+ds) (AID 1963882); further: nearly all actives have a fitted effect of over 35% in size
- Assay Context: SEM B-ALL cells in HPLM+ds, CellTiter-Glo viability, 48 h; series mostly up to 45.8 µM
Records with an inconclusive call do not appear. Active and inactive are the calls of the source. Calls follow the shape of the dose curve; as a rule, active = well fitted cell-killing curve with a large enough effect; inconclusive = small, poorly fitted or top-dose-only effect, or effect the other way; inactive = no such curve, though single readings can be large or run the other way.
Attribute Measured: outcome

INSERT INTO measurements (entry_smiles, attribute_measured, reading) VALUES
  ('O=C(Oc1ccc([N+](=O)[O-])cc1)N1CCC(C(O)(c2ccc3c(c2)OCO3)c2ccc3c(c2)OCO3)CC1', 'outcome', 'inactive'),
  ('c1ccc2c(CN3CCNCC3)cccc2c1', 'outcome', 'inactive'),
  ('C[C@@H]1[C@H](O)[C@@H](C)C=CC=CCCC=CC=CC=CC=C[C@H](O[C@H]2O[C@@H](C)[C@H](O)[C@@H](N)[C@@H]2O)CC2O[C@](O)(C[C@@H](O)[C@H](O)CC[C@@H](O)C[C@@H](O)C[C@@H](O)CC(=O)O[C@H]1C)C[C@H](O)[C@H]2C(=O)O', 'outcome', 'inactive');

---

- Procedure Details: Quantitative highthroughput screen to assess conditional lethalithy of SEM cells grown in Human Plasma-Like Medium with dialyzed fetal bovine serum (HPLM+ds) (AID 1963882); further: nearly all actives have a fitted effect of over 35% in size
- Assay Context: SEM B-ALL cells in HPLM+ds, CellTiter-Glo viability, 48 h; series mostly up to 45.8 µM
Results filed as inconclusive are left out. Active and inactive are the calls of the source. Calls follow the shape of the dose curve; as a rule, active = well fitted cell-killing curve with a large enough effect; inconclusive = small, poorly fitted or top-dose-only effect, or effect the other way; inactive = no such curve, though single readings can be large or run the other way.
Result category, one only: active, inactive

For orientation, consider the following solved cases.
INSERT INTO measurements (compound, group_label) VALUES
  ('O=c1[nH]c2ccc(Cl)cc2c(N[C@@H]2CN3CCC2CC3)c1-c1nc2ccccc2[nH]1', 'active'),
  ('CCCC(C)(COC(N)=O)COC(=O)NC(C)C (stereo not drawn)', 'inactive'),
  ('CC[C@@]1(O)C(=O)OCc2c1cc1n(c2=O)Cc2cc3ccccc3nc2-1', 'active');

Inquiry: // return assay outcome for `CCN1C[C@]2(OC(=O)c3ccccc3NC(C)=O)CC[C@H](OC)[C@@]34[C@H]5CC6[C@@H](OC)C[C@](O)(C(C[C@@H]23)[C@@H]14)[C@@]5(O)[C@@H]6OC`
Reply text: inactive

Inquiry: Please answer likewise for `O=S(=O)(F)Cc1ccccc1`
Reply text: inactive

Inquiry: Proceed to CCOc1ccccc1-n1c(C(C)N2CCN(C(=O)COc3ccc(Cl)cc3)CC2)nc2ccccc2c1=O (stereo not drawn)
Reply text: active

Inquiry: Proceed to `C[C@@H]1O[C@@H](O[C@@H]2C=C3CC[C@@H]4[C@@H](CC[C@]5(C)[C@H](c6ccc(=O)oc6)CC[C@@]45O)[C@@]3(C)CC2)[C@H](O)[C@H](O)[C@H]1O`
Reply text: active

Inquiry: Another compound to look at: `O=C1CC[C@@]2(O)[C@H]3Cc4ccc(O)c5c4[C@@]2(CCN3CC2CC2)[C@H]1O5`
Reply text: inactive

Source listed as PubChem BioAssay (NCATS).
